- System: SF-295
- experimentSummary: NCI tumour cell line growth inhibition, 48 h
Active and inactive are the calls of the source. No stated cut-off is given here; in the data, active = GI50 up to about 1.1 µM and inactive = higher.
Choose the fitting class; nothing outside active, inactive is accepted.

Check out these entries, answers already filled in.
CC(C)=NNc1cnnc2ccc([N+](=O)[O-])cc12; inactive
CCOc1ccc(OCC)c([P+](c2ccccc2)(c2ccccc2)c2ccccc2)c1; active
O=C(N/N=C1/C(=O)c2c3ccccc3cc3cccc1c23)c1ccccc1; inactive
O=C1C(=O)N(c2ccc(Cl)c(Cl)c2)C(=O)C(=O)C1c1nc2ccccc2s1; inactive

From here, focus on the item given below.
Qu. State the result this test recorded for NC(=O)c1ncn(CCN2CCN(C(=O)NCCCCCCNC(=O)N3CCN(CCn4cnc(C(N)=O)c4N)CC3)CC2)c1N .
Ans. inactive

###

- Tested on: CCRF-CEM
- experimentSummary: NCI tumour cell line growth inhibition, 48 h
Activity calls are given as the source filed them. Cut-off read from the data, not from the text of the source: active = GI50 up to about 1.1 µM and inactive = higher.
Choose the fitting class; nothing outside active, inactive is accepted.

Qu. State the result this test recorded for CCCCCCCCCCCCCCCCCCNc1nc(=O)n(C2CC(O)C(COP(=O)(O)OCC3OC(n4ccc(N)nc4=O)C(O)C3O)O2)cc1F (stereo not drawn) .
Ans. inactive

Qu. State the result this test recorded for C=C(C)[C@@]12C[C@H](OC(=O)[C@H](O)[C@@H](NC(=O)c3ccccc3)c3ccccc3)C(C)=C1[C@@H](OC(C)=O)C(=O)[C@@]1(C)C([C@@H]2OC(=O)c2cc(F)cc(F)c2)C2(OC(C)=O)CO[C@@H]2C[C@@H]1O (stereo partly drawn) .
Ans. active

Qu. State the result this test recorded for O=C(c1ccccc1)c1c2ccccn2c2cccc[n+]12 .
Ans. inactive

Qu. State the result this test recorded for CCOC(=O)/C=C/[C@@H](CC)O[Si](C(C)C)(C(C)C)C(C)C .
Ans. inactive

###

- System: IGROV-1
- experimentSummary: NCI tumour cell line growth inhibition, 48 h
The source made the active and inactive calls. No stated cut-off is given here; in the data, active = GI50 up to about 1.1 µM and inactive = higher.
For each entry below, report its GI50 value.

Previously resolved entries follow.
C(=N\c1cnc2ccccc2c1)/c1ccc2ccccc2n1; > 100 µM (inactive)
COc1ccc(N2C(=O)C(N3C(=O)C=CC3=O)C2C=O)cc1 (stereo not drawn); > 100 µM (inactive)

Please examine the following record next.
Qu. Entry under review: COC(=O)C(=O)CC(=O)CCn1[nH]c(=O)c(Cl)c(Cl)c1=O . Reported GI50?
Ans. > 100 µM (inactive)

###

- Tested on: KM-20L2
- experimentSummary: NCI tumour cell line growth inhibition, 48 h
Active and inactive are the calls of the source. No stated cut-off is given here; in the data, active = GI50 up to about 1.1 µM and inactive = higher.
For each entry below, report its GI50 value.

Previously resolved entries follow.
Cc1cc(C)c(-c2noc(-c3ccc(Cl)cc3)c2C2=NCCN2)c(C)c1; 22.2 µM (inactive)
COc1ccc(C23c4ccc(OC)cc4CC2(c2ccc([N+](=O)[O-])cc2)Cc2cc(OC)ccc23)cc1 (stereo not given); > 15.7 µM (inactive)
Cc1cccc(C)c1NC(=O)C1=NC(=S)NC(c2ccccc2)C1c1nc2ccccc2s1 (stereo not given); > 100 µM (inactive)

# batch: return GI50 for each of the 2 molecules below
1. CC/C(C)=C1\CCC(CN2CCOCC2)C1=O (stereo not given)
2. CN(C)/C=N/c1nc2c(ncn2C2OC(CO)C(O)C2O)c(=O)[nH]1 (stereo not given)

Ans.
1. 19.2 µM (inactive)
2. > 100 µM (inactive)

###

- Test system: M14
- experimentSummary: NCI tumour cell line growth inhibition, 48 h
The source made the active and inactive calls. Cut-off read from the data, not from the text of the source: active = GI50 up to about 1.1 µM and inactive = higher.
reportedEndpoint: GI50

Previously resolved entries follow.
CC(C)=NNc1cnnc2ccc([N+](=O)[O-])cc12; 78 µM (inactive)
CN1C(c2ccccc2)CC(=Nc2ccccc2)CC1c1ccccc1 (centres undefined); 13.5 µM (inactive)
C=C1C(=O)C2(C)OC2(C)C1C(=O)O (centres undefined); > 100 µM (inactive)
CCOc1ccccc1NC(=O)CC1Sc2ccccc2NC1=O (centres undefined); 45.8 µM (inactive)
COc1cccc(C2CC(C)(O)Oc3cc4c(cc32)OCO4)c1 (centres undefined); 12.5 µM (inactive)
CC(C)NCCCNc1c2ccccc2nc2cccc([N+](=O)[O-])c12; 0.0113 µM (active)

# batch: return GI50 for each of the 8 compounds below
1. O=c1c2c(-c3ccccc3)c3ccccc3nc2cnn1-c1ccccc1
2. C=CCn1c(-c2ccc([N+](=O)[O-])cc2)cs/c1=N\C(P(=O)(O)O)P(=O)(O)O
3. NC(=O)N/N=C/C(=C/Nc1ccccc1)[N+](=O)[O-]
4. CCOC(=O)c1cnc2oc3ccc(O)cc3c2c1C
5. Cc1ccc(S(=O)(=O)N/N=C/C2(c3ccccc3)c3ccccc3-c3ccccc32)cc1
6. O=C(c1ccccc1)c1c2ccccn2c2cccc[n+]12
7. CCOC(=O)c1cnc2c(ccc3ncccc32)c1NCCCN(CC)CC
8. N#CCc1cccc(CC#N)c1Br

Ans.
1. > 100 µM (inactive)
2. > 100 µM (inactive)
3. > 100 µM (inactive)
4. > 100 µM (inactive)
5. 10.9 µM (inactive)
6. > 100 µM (inactive)
7. 19.1 µM (inactive)
8. > 100 µM (inactive)

# batch: return GI50 for each of the 5 compounds below
1. Cn1c2cccc3nnc4cccc(c4c32)n1C
2. O=C(/C=C/c1ccccc1F)c1ccc([N+](=O)[O-])cc1
3. COc1ccc([C@@]2(O)c3c(ccc(O)c3OC)[C@H]2OC)c(OC)c1
4. CNC1C(O)C(OC2C(N)CC(N)C(OC3OC(C(C)O)C(O)C(O)C3N)C2O)OCC1(C)O (centres undefined)
5. O=C1C2C3C4C1C1C2[C@H](OCc2ccccc2)C3C1[C@H]4OCc1ccccc1 (some centres undefined)

Ans.
> 100 µM (inactive)
26.8 µM (inactive)
> 100 µM (inactive)
> 100 µM (inactive)
51.8 µM (inactive)

# batch: return GI50 for each of the 4 compounds below
1. O=C1NN(Cc2ccccc2)C(=O)N2CCC[C@@H]12
2. COc1nc(NC2OC(COC(C)=O)C(OC(C)=O)C(OC(C)=O)C2OC(C)=O)c2c(OC(C)=O)cc(=O)oc2n1 (centres undefined)
3. Cc1nc2c(=O)n(C)c(=O)nc-2n(-c2ccc(Cl)cc2)c1C
4. Cc1sc2c(c1C)C(=O)c1cccn1-2

Ans.
> 100 µM (inactive)
> 100 µM (inactive)
82.6 µM (inactive)
> 100 µM (inactive)

# batch: return GI50 for each of the 2 compounds below
1. CCOC(=O)/C(C(=O)Nc1cccc(C(F)(F)F)c1)=C(/N)N1CCOCC1
2. CCOC(=O)C(Cc1cn(C(C)=O)c2ccccc12)P(=O)(OCC)OCC (centres undefined)

Ans.
1: > 100 µM (inactive); 2: > 100 µM (inactive)

# batch: return GI50 for each of the 6 compounds below
1. CCOc1ccc(OCC)c([P+](c2ccccc2)(c2ccccc2)c2ccccc2)c1
2. Nc1cc2nc(-c3ccccc3)cn2cn1
3. CCOc1ccc(NCC2CC/C(=C\c3ccc(O)cc3)C2=O)cc1 (centres undefined)
4. Cc1ccc(C)c(N2C/C(=N\NC(=O)CC#N)C(c3nc4ccccc4s3)C(=O)C2=O)c1 (centres undefined)
5. Cc1cccc(C)c1NC(=O)C1=NC(=S)NC(c2ccccc2)C1c1nc2ccccc2s1 (centres undefined)
6. Cc1ccc(S(=O)(=O)NCCCN(CCCNS(=O)(=O)c2ccc(C)cc2)S(=O)(=O)c2ccc(C)cc2)cc1

Ans.
1: 0.71 µM (active); 2: > 100 µM (inactive); 3: 18.1 µM (inactive); 4: > 100 µM (inactive); 5: > 100 µM (inactive); 6: > 100 µM (inactive)

# batch: return GI50 for each of the 3 compounds below
1. C/C(=N\Nc1nnc(S)n1N)c1c(O)cc(C)oc1=O
2. Cc1ccc2nc(CN(CCO)CCO)cc(=O)n2c1
3. COC(=O)c1ccc(C)cc1C1CN=NC12Cc1cc(C)c(C)cc1C2=O (centres undefined)

Ans.
1. > 100 µM (inactive)
2. > 100 µM (inactive)
3. 35.4 µM (inactive)

# batch: return GI50 for each of the 4 compounds below
1. CN(CCc1ccc(Br)cc1)CCN1CCCCC1
2. N#CCN1C(=O)c2cccc3cc([N+](=O)[O-])cc(c23)C1=O
3. COC(=O)[C@](NC(=O)OCc1ccccc1)([C@@H](C)Sc1ccc(C)cc1)C(F)(F)F
4. N#CC1(Cc2ccc(N)cc2)c2ccccc2C=CN1C(=O)c1ccccc1 (centres undefined)

Ans.
["22.8 µM (inactive)", "37.3 µM (inactive)", "68.2 µM (inactive)", "25.6 µM (inactive)"]

# batch: return GI50 for each of the 6 compounds below
1. CCO/C=C(\C(=O)OC)S(=O)(=O)c1ccc(C)cc1
2. COC12C=CC(CC1)C1C(=O)c3c(C)c(C)n(C)c3C(=O)C12 (centres undefined)
3. COc1cc(O)c2c(=O)c(OC)c(-c3ccc(OC)c(O)c3)oc2c1 [AYANIN]
4. CC(C)=CCc1c2c(c3occ(-c4ccc(O)c(O)c4)c(=O)c3c1O)C=CC(C)(C)O2 [POMIFERIN]
5. CC(=O)NNC(=S)N/C=C1/C(=O)Oc2ccccc2C1=O
6. O=c1cc(/N=N/c2ccc(O)cc2)[nH]c(=O)[nH]1

Ans.
["> 100 µM (inactive)", "> 100 µM (inactive)", "52.2 µM (inactive)", "1.68 µM (inactive)", "> 100 µM (inactive)", "> 100 µM (inactive)"]
